These measurements were taken from PubChem BioAssay AID2060363.

Entries and their viability, T/C values follow.
system: 156681-154-R-J1-PDC tumor spheroids, viability % test/control; assay: Anticancer human tumor 156681-154-R-J1-PDC patient-derived melanoma cell line growth inhibition [TAK]; conditions: second compound 9.49 µM; first compound 0.001 µM; active compounds read low; spheroids with HUVEC and MSC
Assay Metric: viability, T/C

>>> val("CC(C)CC(NC(=O)C(Cc1ccccc1)NC(=O)c1cnccn1)B(O)O (centres undefined) + CC(C)NCC(C(=O)N1CCN(c2ncnc3c2C(C)CC3O)CC1)c1ccc(Cl)cc1")
"37.6%"
>>> val("CC(C)CC(NC(=O)CNC(=O)c1cc(Cl)ccc1Cl)B1OC(=O)CC(CC(=O)O)(C(=O)O)O1 (centres undefined) + CC(C)NCC(C(=O)N1CCN(c2ncnc3c2C(C)CC3O)CC1)c1ccc(Cl)cc1")
"41.5%"
>>> val("CC(C)n1nc(-c2ccc3oc(N)nc3c2)c2c(N)ncnc21 + CC(C)NCC(C(=O)N1CCN(c2ncnc3c2C(C)CC3O)CC1)c1ccc(Cl)cc1")
"33.4%"
>>> val("COC1CC2CCC(C)C(O)(O2)C(=O)C(=O)N2CCCCC2C(=O)OC(C(C)CC2CCC(OCCO)C(OC)C2)CC(=O)C(C)C=C(C)C(O)C(OC)C(=O)C(C)CC(C)C=CC=CC=C1C (centres undefined) + CC(C)NCC(C(=O)N1CCN(c2ncnc3c2C(C)CC3O)CC1)c1ccc(Cl)cc1")
"28%"

###

viability, T/C for assorted molecules
tested on: 156681-154-R-J1-PDC tumor spheroids, viability % test/control; test: Anticancer human tumor 156681-154-R-J1-PDC cell line growth inhibition [TAK]; details: second compound 30 µM; first compound 1 µM; active compounds read low; spheroids with HUVEC and MSC;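 note: spheroids exposed to compounds for 7 days before the endpoint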
Assay Metric: viability, T/C (%)

>>> val("Cc1nc(NC(=O)N2CCCC2C(N)=O)sc1-c1ccnc(C(C)(C)C(F)(F)F)c1 (centres undefined) + CC(C)NCC(C(=O)N1CCN(c2ncnc3c2C(C)CC3O)CC1)c1ccc(Cl)cc1")
8.89
>>> val("COc1c(OCCCN2CCOCC2)ccc2c3n(c(=NC(=O)c4cnc(N)nc4)nc12)CCN3 + CC(C)NCC(C(=O)N1CCN(c2ncnc3c2C(C)CC3O)CC1)c1ccc(Cl)cc1")
0.29
>>> val("CCCS(=O)(=O)Nc1ccc(F)c(C(=O)c2c[nH]c3ncc(-c4ccc(Cl)cc4)cc23)c1F + CC(C)NCC(C(=O)N1CCN(c2ncnc3c2C(C)CC3O)CC1)c1ccc(Cl)cc1")
19.2
>>> val("CC(C)(C)c1nc(-c2cccc(NS(=O)(=O)c3c(F)cccc3F)c2F)c(-c2ccnc(N)n2)s1 + CC(C)NCC(C(=O)N1CCN(c2ncnc3c2C(C)CC3O)CC1)c1ccc(Cl)cc1")
2.12

###

tested on: 156681-154-R-J1-PDC tumor spheroids, viability % test/control; test: Anticancer human tumor 156681-154-R-J1-PDC cell line growth inhibition [TAK]; conditions: second compound 30 µM; first compound 0.01 µM; spheroids with HUVEC and MSC; active = viability on the fitted dose curve at most 10% of control; inactive = the rest;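 note: spheroids exposed to compounds for 7 days before the endpoint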
Outcomes: active, inactive

>>> label_value("CC(C)CC(NC(=O)C(Cc1ccccc1)NC(=O)c1cnccn1)B(O)O (centres undefined) + CC(C)NCC(C(=O)N1CCN(c2ncnc3c2C(C)CC3O)CC1)c1ccc(Cl)cc1")
"active"
>>> label_value("CC(C)n1nc(-c2ccc3oc(N)nc3c2)c2c(N)ncnc21 + CC(C)NCC(C(=O)N1CCN(c2ncnc3c2C(C)CC3O)CC1)c1ccc(Cl)cc1")
"active"
>>> label_value("CC(C)CC(NC(=O)CNC(=O)c1cc(Cl)ccc1Cl)B1OC(=O)CC(CC(=O)O)(C(=O)O)O1 (centres undefined) + CC(C)NCC(C(=O)N1CCN(c2ncnc3c2C(C)CC3O)CC1)c1ccc(Cl)cc1")
"inactive"
>>> label_value("COC1CC2CCC(C)C(O)(O2)C(=O)C(=O)N2CCCCC2C(=O)OC(C(C)CC2CCC(OCCO)C(OC)C2)CC(=O)C(C)C=C(C)C(O)C(OC)C(=O)C(C)CC(C)C=CC=CC=C1C (centres undefined) + CC(C)NCC(C(=O)N1CCN(c2ncnc3c2C(C)CC3O)CC1)c1ccc(Cl)cc1")
"active"
